molecular target: PLK1 (Homo sapiens, UniProt P53350); experiment: PLK1 biochemical inhibition
Sequence (P53350 whole entry, species assumed): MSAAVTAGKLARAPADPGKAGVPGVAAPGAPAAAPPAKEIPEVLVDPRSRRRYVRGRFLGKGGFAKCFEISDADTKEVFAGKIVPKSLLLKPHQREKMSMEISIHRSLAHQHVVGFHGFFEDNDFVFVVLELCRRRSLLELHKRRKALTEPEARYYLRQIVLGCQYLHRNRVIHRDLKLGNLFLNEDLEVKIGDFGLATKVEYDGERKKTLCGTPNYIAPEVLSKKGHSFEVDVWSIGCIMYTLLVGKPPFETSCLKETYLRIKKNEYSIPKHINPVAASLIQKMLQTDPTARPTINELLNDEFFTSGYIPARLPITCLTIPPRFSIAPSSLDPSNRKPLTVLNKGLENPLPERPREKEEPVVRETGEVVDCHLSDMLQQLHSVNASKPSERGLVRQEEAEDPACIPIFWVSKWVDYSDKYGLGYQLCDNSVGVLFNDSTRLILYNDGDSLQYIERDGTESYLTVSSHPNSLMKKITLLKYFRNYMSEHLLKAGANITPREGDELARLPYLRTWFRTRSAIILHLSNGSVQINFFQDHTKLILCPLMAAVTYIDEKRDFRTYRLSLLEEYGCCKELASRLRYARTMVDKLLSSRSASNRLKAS
pIC50: −log10 of the molar value.

compound | pIC50
c1cncc(-c2cc3c(cn2)[nH]c2ncc(-c4ccc(N5CCOCC5)cc4)cc23)c1 [Example 121] | 5.30 to 6.00
Cn1cc(-c2cc3c(cn2)[nH]c2ncccc23)cn1 [Example 39] | 5.30 to 6.00
COc1cnc2[nH]c3cnc(-c4cccnc4)cc3c2c1-c1ccc(NS(C)(=O)=O)cc1 [Example 44] | 7.00 to 9.00
COc1ccccc1-c1c(F)cnc2[nH]c3cnc(-c4cccnc4)cc3c12 [Example 63] | 7.00 to 9.00
Fc1cnc2[nH]c3cnc(-c4cccnc4)cc3c2c1 [Example 2] | 6.00 to 7.00
OC(COc1ccc(-c2c(F)cnc3[nH]c4cnc(-c5cccnc5)cc4c23)cc1)CN1CCOCC1 (centres unmarked) [Example 101] | 7.00 to 9.00
CCCN(CCC)CCCN1CCN(c2c(F)cnc3[nH]c4cnc(-c5cccnc5)cc4c23)CC1 [Example 88] | 5.30 to 6.00
CN(C)CCOc1ccc(-c2c(F)cnc3[nH]c4cnc(-c5cccnc5)cc4c23)cc1 [Example 96] | 6.00 to 7.00

====

Quick list: IC50 per entry.
molecular target: Pim-1 (Homo sapiens, UniProt P11309); construct: His6-labelled recombinant full-length human Pim-1, Pim-2 or Pim-3 protein; His6; made in house; experiment: TR-FRET assay, Pim-1 kinase (phosphorylation of Bad Ser112); type: biochemical; conditions: TR-FRET; ATP 40 μM; read-out: IC50 Pim1
Sequence (P11309 whole entry): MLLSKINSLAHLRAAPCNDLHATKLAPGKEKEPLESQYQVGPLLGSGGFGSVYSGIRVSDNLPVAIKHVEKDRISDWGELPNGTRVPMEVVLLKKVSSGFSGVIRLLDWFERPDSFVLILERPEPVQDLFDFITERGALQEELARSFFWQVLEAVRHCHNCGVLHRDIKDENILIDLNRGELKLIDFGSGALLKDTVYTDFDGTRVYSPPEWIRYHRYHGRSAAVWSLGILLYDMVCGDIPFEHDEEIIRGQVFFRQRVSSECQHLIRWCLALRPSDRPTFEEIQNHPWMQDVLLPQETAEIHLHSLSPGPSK

compound | system tested | IC50
CC(C)(C)OC(=O)N1CCN(c2ccc(-c3cnc4[nH]c5cnc(-c6cccnc6)cc5c4c3)cc2)CC1 | Pim-1 (Homo sapiens, UniProt P11309) | 100 to 1000 nM
CCCN(C)c1cnc2[nH]c3cnc(-c4cccnc4)cc3c2c1 | Pim-1 (Homo sapiens, UniProt P11309) | 1 to 100 nM
CN(C)C1CCN(c2c(F)cnc3[nH]c4cnc(-c5cccnc5)cc4c23)CC1 | Pim-1 (Homo sapiens, UniProt P11309) | 100 to 1000 nM
CCN1CCN(C(C)(C)C#Cc2c(F)cnc3[nH]c4cnc(-c5cccnc5)cc4c23)CC1 | Pim-1 (Homo sapiens, UniProt P11309) | 1 to 100 nM
OCC(O)CCc1c(F)cnc2[nH]c3cnc(-c4cccnc4)cc3c12 (centres unmarked) | Pim-1 (Homo sapiens, UniProt P11309) | 1 to 100 nM
Nc1ccc(-c2c(F)cnc3[nH]c4cnc(-c5cccnc5)cc4c23)cn1 | Pim-1 (Homo sapiens, UniProt P11309) | 100 to 1000 nM
Cc1cc(N2CCN(C(=O)OC(C)(C)C)CC2)ncc1-c1cnc2[nH]c3cnc(-c4cccnc4)cc3c2c1 | Pim-1 (Homo sapiens, UniProt P11309) | 1 to 100 nM
Fc1cnc2[nH]c3cnc(-c4cccnc4)cc3c2c1N1CCC(N2CCCCC2)CC1 | Pim-1 (Homo sapiens, UniProt P11309) | 100 to 1000 nM

====

molecular target: Pim-3 (Homo sapiens); construct: His6-labelled recombinant full-length human Pim-1, Pim-2 or Pim-3 protein; His6; made in house; assay: TR-FRET assay, Pim-3 kinase (phosphorylation of Bad Ser112); format: biochemical; settings: TR-FRET; ATP 40 μM; read-out: IC50 Pim3
pIC50: −log10 of the molar value.
Quick list: pIC50 per entry.

compound | pIC50
c1cncc(-c2cc3c(cn2)[nH]c2ncc(-c4ccc(N5CCOCC5)cc4)cc23)c1 [Example 121] | 7.00 to 9.00
COc1c(F)cnc2[nH]c3cnc(-c4cccnc4)cc3c12 [Example 105] | 6.00 to 7.00
CC(C)Cn1cc(-c2cnc3[nH]c4cnc(-c5cccnc5)cc4c3c2)cn1 [Example 117] | 7.00 to 9.00
Cc1n[nH]c(C)c1-c1cnc2[nH]c3cnc(-c4cccnc4)cc3c2c1 [Example 120] | 7.00 to 9.00
CCc1cc(N(CC)CC)ncc1-c1cnc2[nH]c3cnc(-c4cccnc4)cc3c2c1 [Example 133] | 6.00 to 7.00
CN1CCN(c2cnc3[nH]c4cnc(-c5cccnc5)cc4c3c2)CC1 [Example 106] | 7.00 to 9.00
c1cncc(-c2cc3c(cn2)[nH]c2ncc(-c4ccnc(N5CCNCC5)c4)cc23)c1 [Example 144] | 7.00 to 9.00
Fc1cnc2[nH]c3cnc(-c4cccnc4)cc3c2c1N1CCC(N2CCCC2)CC1 [Example 85] | 6.00 to 7.00
